Catalogue of solubility values
PROTOCOL DESCRIPTION: Salt solubility measurement in water
CONDITIONS: water, thermodynamic from solid, Solubility as salt, stirred at ambient temperature 18-20 hours, filtered, hplc assay
Report the figure in µg/mL without appending any unit label.

Below, each entry is followed by its recorded solubility result.
| COMPOUND | OBSERVED |
| --- | --- |
| CS(=O)(=O)CCNCc1ccc(-c2ccc3ncnc(Nc4ccc(OCc5cccc(F)c5)c(Cl)c4)c3c2)o1.C[C@H](O)C(=O)O [Mono-L-lactate] | 8500 |
| CCS(=O)(=O)O.CS(=O)(=O)CCNCc1ccc(-c2ccc3ncnc(Nc4ccc(OCc5cccc(F)c5)c(Cl)c4)c3c2)o1 [Monoesylate] | 620 |
| CS(=O)(=O)CCNCc1ccc(-c2ccc3ncnc(Nc4ccc(OCc5cccc(F)c5)c(Cl)c4)c3c2)o1.CS(=O)(=O)O.CS(=O)(=O)O.O [Dimesylate monohydrate] | 5800 |
| CS(=O)(=O)CCNCc1ccc(-c2ccc3ncnc(Nc4ccc(OCc5cccc(F)c5)c(Cl)c4)c3c2)o1.O.O=C(O)/C=C\C(=O)O.O=C(O)/C=C\C(=O)O [Dimaleate monohydrate] | 60 |
| CS(=O)(=O)CCNCc1ccc(-c2ccc3ncnc(Nc4ccc(OCc5cccc(F)c5)c(Cl)c4)c3c2)o1.O=C(O)/C=C\C(=O)O.O=C(O)/C=C\C(=O)O [Dimaleate] | 180 |

Ask: Please give the measured solubility for this compound: CS(=O)(=O)CCNCc1ccc(-c2ccc3ncnc(Nc4ccc(OCc5cccc(F)c5)c(Cl)c4)c3c2)o1.O=C(O)C[C@H](O)C(=O)O [Mono L-malate]
Result: 60

Ask: Requested field: solubility. Item: CS(=O)(=O)CCNCc1ccc(-c2ccc3ncnc(Nc4ccc(OCc5cccc(F)c5)c(Cl)c4)c3c2)o1.CS(=O)(=O)O [Monomesylate]
Result: 390

Ask: Quick check: solubility of CS(=O)(=O)CCNCc1ccc(-c2ccc3ncnc(Nc4ccc(OCc5cccc(F)c5)c(Cl)c4)c3c2)o1.O=C(O)c1ccccc1.O=C(O)c1ccccc1 [Dibenzoate] ?
Result: 60

Ask: Recorded solubility of CS(=O)(=O)CCNCc1ccc(-c2ccc3ncnc(Nc4ccc(OCc5cccc(F)c5)c(Cl)c4)c3c2)o1.O=C(O)CC(O)(CC(=O)O)C(=O)O [Monocitrate] , please.
Result: 10
